# EXPERIMENTAL_TARGET: cT1R1-NTD (N-terminal domain of the cat T1R1 taste receptor) (Felis catus, UniProt A0ABI7Z2I4)
# Sequence (A0ABI7Z2I4 entry or part of it): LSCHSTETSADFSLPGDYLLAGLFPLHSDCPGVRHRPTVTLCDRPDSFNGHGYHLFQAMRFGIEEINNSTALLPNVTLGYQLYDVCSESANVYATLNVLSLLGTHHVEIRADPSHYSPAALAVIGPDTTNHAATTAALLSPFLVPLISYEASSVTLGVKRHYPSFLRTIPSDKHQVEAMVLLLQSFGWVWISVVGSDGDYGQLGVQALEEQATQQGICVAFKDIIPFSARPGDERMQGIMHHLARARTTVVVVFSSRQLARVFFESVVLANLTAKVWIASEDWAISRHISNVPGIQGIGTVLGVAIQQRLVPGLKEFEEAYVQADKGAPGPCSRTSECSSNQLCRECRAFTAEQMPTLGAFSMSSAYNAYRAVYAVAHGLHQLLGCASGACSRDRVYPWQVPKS
# PROCEDURE_DETAILS: Ligand binding assay by intrinsic tryptophan fluorescence of refolded cT1R1-NTD
# EXPERIMENTAL_CONDITIONS: 0.3 μM IMP final concentration
REPORTED_METRIC: synergetic effect of IMP on L-amino acid binding (shift of binding curve)

| MOLECULE | EXPERIMENTAL_VALUE |
| --- | --- |
| CC[C@H](C)[C@H](N)C(=O)O [L-Ile] | relatively modest |
| N=C(N)NCCC[C@H](N)C(=O)O [L-Arg] | relatively modest |
| C[C@H](N)C(=O)O [L-Ala, L-alanine] | relatively modest |
